// provenance: the supplement of paper PMC10724198

Attribute: protein stability index
System: Saccharomyces cerevisiae
Assay: protein stability index of tFT-peptide fusion (C-terminal peptide) (PSI (0-1 scale)); higher = more stable (slower turnover)
Condition Set: genetic background: das1 deletion; temperature: 30 C
Just the number, please, no unit after it.

Worked set:
>  <Chain>
AVHLQAIDLLNC [PIR1 C-terminal 12 aa]

>  <System Tested>
Saccharomyces cerevisiae

>  <protein stability index>
0.714

$$$$
>  <Chain>
KTHRSRSSRKGN [YMR135W-A C-terminal 12 aa]

>  <System Tested>
Saccharomyces cerevisiae

>  <protein stability index>
0.683

$$$$

From here, focus on the item given below.
What protein stability index value was documented for this sequence, LPIWDPMGALAK [LAP3 C-terminal 12 aa] ?
0.703
